// values below are reported GI50 at 72 h
- procedure_text: Antiproliferative activity in mouse BAF3 cells after 72 hrs by CCK8 assay
- Format: cell-based

Worked examples, 3 molecules total:
chem_smiles | GI50 at 72 h
CN1CCN(Cc2ccc(NC(=O)NCCSc3ccc4c(/C=C/c5ccccn5)n[nH]c4c3)cc2C(F)(F)F)CC1 | 3.1 µM
COc1ccc(NC(=O)CCSc2ccc3c(/C=C/c4ccccn4)n[nH]c3c2)cc1C(F)(F)F | > 10 µM
CN1CCN(Cc2ccc(C(=O)NCCSc3ccc4c(/C=C/c5ccccn5)n[nH]c4c3)cc2C(F)(F)F)CC1 | 4.8 µM

Item under review: CN1CCN(Cc2ccc(NC(=O)CCSc3ccc4c(-c5ccccc5)n[nH]c4c3)cc2C(F)(F)F)CC1 . Reported GI50 at 72 h?
0.6 µM

----------
- subject_of_test: Tyrosine-protein kinase ABL1 (Homo sapiens, UniProt P00519, T315I)
- procedure_text: Inhibition of inactive wild type His-tagged ABL T315I mutant (229 to 500 residues) (unknown origin) expressed in baculovirus infected sf9 cells assessed as reduction in autophosphorylation preincubated for 60 mins followed by ATP addition measured after 8 hrs by ADP-Glo assay
measure_name: IC50 (nM)
Numbers only; they are read as nM.

Entry CN1CCN(Cc2ccc(NC(=O)CCSc3ccc4c(/C=C/c5ccccn5)n[nH]c4c3)cc2C(F)(F)F)CC1 : reported IC50 = ?
0.2

----------
- procedure_text: MRT (0 to t) in Sprague-Dawley rat at 10 mg/kg, po by LC-MS/MS analysis
- Type: ADME, organism-based
- condition_details: in vivo
measure_name: MRT last (h)
I only need the number, in h, no unit after it.

Data request, read-out MRT last, for CN1CCN(Cc2ccc(NC(=O)CCSc3ccc4c(/C=C/c5ccccn5)n[nH]c4c3)cc2C(F)(F)F)CC1
4.4

----------
- subject_of_test: Tyrosine-protein kinase ABL1 (Homo sapiens, UniProt P00519, T315I)
- procedure_text: Inhibition of active wild type His-tagged ABL T315I mutant (229 to 500 residues) (unknown origin) expressed in baculovirus infected sf9 cells using ABLtide as substrate after 1 hr by ADP-Glo assay
measure_name: IC50 (nM)
Number in nM, nothing else.

Name the recorded IC50 for CN1CCN(Cc2ccc(NC(=O)CCSc3ccc4c(/C=C/c5ccccn5)n[nH]c4c3)cc2C(F)(F)F)CC1 .
0.2

----------
Reported GI50 at 72 h values for the following molecules.
- procedure_text: Antiproliferative activity in mouse BAF3 cells after 72 hrs by CCK8 assay
- Format: cell-based
Return type: number; implicit unit µM.

Consider the following illustrative entries.
chem_smiles | GI50 at 72 h, µM
Cc1ccc(-c2n[nH]c3cc(SCCC(=O)Nc4ccc(CN5CCN(C)CC5)c(C(F)(F)F)c4)ccc23)cn1 | 1.18
CN(C)CCN(C)Cc1ccc(NC(=O)CCSc2ccc3c(/C=C/c4ccccn4)n[nH]c3c2)cc1C(F)(F)F | 1.85

Record request: GI50 at 72 h value, item CN1CCN(Cc2ccc(C(=O)NCCCSc3ccc4c(/C=C/c5ccccn5)n[nH]c4c3)cc2C(F)(F)F)CC1
4.4

Returns the measured GI50 at 72 h for the input molecule. Input: CN1CCN(Cc2ccc(NC(=O)CCSc3ccc4c(-c5cccnc5)n[nH]c4c3)cc2C(F)(F)F)CC1
2.65

----------
- procedure_text: Half life in Sprague-Dawley rat at 1 mg/kg, iv by LC-MS/MS analysis
- Format: ADME, organism-based
- condition_details: in vivo
measure_name: half-life (h)
Numbers only; they are read as h.

half-life for CN1CCN(Cc2ccc(NC(=O)CCSc3ccc4c(/C=C/c5ccccn5)n[nH]c4c3)cc2C(F)(F)F)CC1 ?
2.3

----------
- subject_of_test: Bcr/Abl fusion protein (Homo sapiens) (UniProt P00519+P11274)
- condition_details: BaF3
- Description: Inhibition of wild type BCR/ABL (unknown origin) transfected in mouse BAF3 cells assessed as growth inhibition after 72 hrs by CCK8 assay
log10(GI50): recorded values
Field: value | Transform: log10 | Quantity: GI50 | Unit: nM

chem_smiles | subject_of_test | value_observed
CN(C)c1cccc(NC(=O)CCSc2ccc3c(/C=C/c4ccccn4)n[nH]c3c2)c1 | Bcr/Abl fusion protein (Homo sapiens) (UniProt P00519+P11274) | 3.99
Cc1ccc(-c2n[nH]c3cc(SCCC(=O)Nc4ccc(CN5CCN(C)CC5)c(C(F)(F)F)c4)ccc23)cn1 | Bcr/Abl fusion protein (Homo sapiens) (UniProt P00519+P11274) | 1.96

Kindly state the measured log10(GI50) obtained for O=C(CCSc1ccc2c(/C=C/c3ccccn3)n[nH]c2c1)Nc1cccc(Cl)c1 with Bcr/Abl fusion protein (Homo sapiens) (UniProt P00519+P11274).
3.19

Checklist item: log10(GI50) tested on Bcr/Abl fusion protein (Homo sapiens) (UniProt P00519+P11274), entry COc1cccc(NC(=O)CCSc2ccc3c(/C=C/c4ccccn4)n[nH]c3c2)c1 , value?
3.51

Enter reported log10(GI50) observed with Bcr/Abl fusion protein (Homo sapiens) (UniProt P00519+P11274) for O=C(CCSc1ccc2c(/C=C/c3ccccn3)n[nH]c2c1)Nc1ccc(CN2CCCC2)c(C(F)(F)F)c1
2.18

Requested read-out log10(GI50), target or system Bcr/Abl fusion protein (Homo sapiens) (UniProt P00519+P11274), entry CC1CCN(Cc2ccc(NC(=O)CCSc3ccc4c(/C=C/c5ccccn5)n[nH]c4c3)cc2C(F)(F)F)CC1
3.30

----------
- procedure_text: AUC (0 to t) in Sprague-Dawley rat at 10 mg/kg, po by LC-MS/MS analysis
- Assay type: ADME, organism-based
- condition_details: in vivo
measure_name: AUC(0-t) (ng·h/mL)
A number alone suffices; assume ng·h/mL.

Sample CN1CCN(Cc2ccc(NC(=O)CCSc3ccc4c(/C=C/c5ccccn5)n[nH]c4c3)cc2C(F)(F)F)CC1 — what was its AUC(0-t)?
210

----------
- procedure_text: Antiproliferative activity in CHO cells after 72 hrs by CCK8 assay
- Assay type: cell-based, Cricetulus griseus
- condition_details: chinese hamster
measure_name: GI50 at 72 h

molecule | measure_name | value_observed
CN1CCN(Cc2ccc(NC(=O)CCSc3ccc4c(/C=C/c5ccccn5)n[nH]c4c3)cc2C(F)(F)F)CC1 | GI50 at 72 h | 1.12 µM
Cc1ccc(NC(=O)c2ccc(CN3CCN(C)CC3)cc2)cc1Nc1nccc(-c2cccnc2)n1 [IMATINIB] | GI50 at 72 h | > 10 µM

Could you now consider this next molecule?
Tell me the measured GI50 at 72 h of CNC(=O)c1ccccc1Sc1ccc2c(/C=C/c3ccccn3)n[nH]c2c1 [AXITINIB] , please.
> 10 µM

----------
- procedure_text: AUC (0 to t) in mouse at 10 mg/kg, po by LC-MS/MS analysis
- Type: ADME, organism-based
- condition_details: in vivo
measure_name: AUC(0-t) (ng·h/mL)
Report the figure in ng·h/mL without appending any unit label.

Item under review: CN1CCN(Cc2ccc(NC(=O)CCSc3ccc4c(/C=C/c5ccccn5)n[nH]c4c3)cc2C(F)(F)F)CC1 . Reported AUC(0-t)?
225

----------
- procedure_text: AUC (0 to infinity) in mouse at 10 mg/kg, po by LC-MS/MS analysis
- Format: ADME, organism-based
- Parameters: dose 10 mg/kg, route oral, time infinity
- condition_details: in vivo
measure_name: AUC(0-inf)

What AUC(0-inf) value was documented for this compound, CN1CCN(Cc2ccc(NC(=O)CCSc3ccc4c(/C=C/c5ccccn5)n[nH]c4c3)cc2C(F)(F)F)CC1 ?
230 ng·h/mL

----------
GI50 at 72 h values, listed per item
- procedure_text: Antiproliferative activity in mouse BAF3 cells after 72 hrs by CCK8 assay
- Type: cell-based
A number alone suffices; assume µM.

Example cases with answers are listed next.
chem_smiles | value_observed
CCN1CCN(Cc2ccc(NC(=O)CCSc3ccc4c(/C=C/c5ccccn5)n[nH]c4c3)cc2C(F)(F)F)CC1 | 0.84
Cc1ccc(NC(=O)CCSc2ccc3c(/C=C/c4ccccn4)n[nH]c3c2)cc1C(F)(F)F | 0.53

Please give the measured GI50 at 72 h for this compound: CC1CCN(Cc2ccc(NC(=O)CCSc3ccc4c(/C=C/c5ccccn5)n[nH]c4c3)cc2C(F)(F)F)CC1
4.17

Data request, read-out GI50 at 72 h, for O=C(CCSc1ccc2c(/C=C/c3ccccn3)n[nH]c2c1)Nc1cccc(F)c1
6.59

Need GI50 at 72 h, item O=C(NCCSc1ccc2c(/C=C/c3ccccn3)n[nH]c2c1)c1cccc(C(F)(F)F)c1
1.5

Returns the measured GI50 at 72 h for the input compound. Input: CN1CCN(Cc2ccc(NC(=O)CCSc3ccc4c(-c5cnn(C)c5)n[nH]c4c3)cc2C(F)(F)F)CC1
1.4

Endpoint output: GI50 at 72 h of O=C(NCCSc1ccc2c(/C=C/c3ccccn3)n[nH]c2c1)Nc1cccc(C(F)(F)F)c1 . Value?
3

Provenance of the data: ChEMBL document CHEMBL4382204
